- measurement.target: Human Cav3.1 calcium channel (Homo sapiens, UniProt O43497)
- Construct: expressed in transfected cells; host or cells: HEK-293 natClytin/TASK1+Cav3.1 cell line
- Sequence (O43497 whole entry): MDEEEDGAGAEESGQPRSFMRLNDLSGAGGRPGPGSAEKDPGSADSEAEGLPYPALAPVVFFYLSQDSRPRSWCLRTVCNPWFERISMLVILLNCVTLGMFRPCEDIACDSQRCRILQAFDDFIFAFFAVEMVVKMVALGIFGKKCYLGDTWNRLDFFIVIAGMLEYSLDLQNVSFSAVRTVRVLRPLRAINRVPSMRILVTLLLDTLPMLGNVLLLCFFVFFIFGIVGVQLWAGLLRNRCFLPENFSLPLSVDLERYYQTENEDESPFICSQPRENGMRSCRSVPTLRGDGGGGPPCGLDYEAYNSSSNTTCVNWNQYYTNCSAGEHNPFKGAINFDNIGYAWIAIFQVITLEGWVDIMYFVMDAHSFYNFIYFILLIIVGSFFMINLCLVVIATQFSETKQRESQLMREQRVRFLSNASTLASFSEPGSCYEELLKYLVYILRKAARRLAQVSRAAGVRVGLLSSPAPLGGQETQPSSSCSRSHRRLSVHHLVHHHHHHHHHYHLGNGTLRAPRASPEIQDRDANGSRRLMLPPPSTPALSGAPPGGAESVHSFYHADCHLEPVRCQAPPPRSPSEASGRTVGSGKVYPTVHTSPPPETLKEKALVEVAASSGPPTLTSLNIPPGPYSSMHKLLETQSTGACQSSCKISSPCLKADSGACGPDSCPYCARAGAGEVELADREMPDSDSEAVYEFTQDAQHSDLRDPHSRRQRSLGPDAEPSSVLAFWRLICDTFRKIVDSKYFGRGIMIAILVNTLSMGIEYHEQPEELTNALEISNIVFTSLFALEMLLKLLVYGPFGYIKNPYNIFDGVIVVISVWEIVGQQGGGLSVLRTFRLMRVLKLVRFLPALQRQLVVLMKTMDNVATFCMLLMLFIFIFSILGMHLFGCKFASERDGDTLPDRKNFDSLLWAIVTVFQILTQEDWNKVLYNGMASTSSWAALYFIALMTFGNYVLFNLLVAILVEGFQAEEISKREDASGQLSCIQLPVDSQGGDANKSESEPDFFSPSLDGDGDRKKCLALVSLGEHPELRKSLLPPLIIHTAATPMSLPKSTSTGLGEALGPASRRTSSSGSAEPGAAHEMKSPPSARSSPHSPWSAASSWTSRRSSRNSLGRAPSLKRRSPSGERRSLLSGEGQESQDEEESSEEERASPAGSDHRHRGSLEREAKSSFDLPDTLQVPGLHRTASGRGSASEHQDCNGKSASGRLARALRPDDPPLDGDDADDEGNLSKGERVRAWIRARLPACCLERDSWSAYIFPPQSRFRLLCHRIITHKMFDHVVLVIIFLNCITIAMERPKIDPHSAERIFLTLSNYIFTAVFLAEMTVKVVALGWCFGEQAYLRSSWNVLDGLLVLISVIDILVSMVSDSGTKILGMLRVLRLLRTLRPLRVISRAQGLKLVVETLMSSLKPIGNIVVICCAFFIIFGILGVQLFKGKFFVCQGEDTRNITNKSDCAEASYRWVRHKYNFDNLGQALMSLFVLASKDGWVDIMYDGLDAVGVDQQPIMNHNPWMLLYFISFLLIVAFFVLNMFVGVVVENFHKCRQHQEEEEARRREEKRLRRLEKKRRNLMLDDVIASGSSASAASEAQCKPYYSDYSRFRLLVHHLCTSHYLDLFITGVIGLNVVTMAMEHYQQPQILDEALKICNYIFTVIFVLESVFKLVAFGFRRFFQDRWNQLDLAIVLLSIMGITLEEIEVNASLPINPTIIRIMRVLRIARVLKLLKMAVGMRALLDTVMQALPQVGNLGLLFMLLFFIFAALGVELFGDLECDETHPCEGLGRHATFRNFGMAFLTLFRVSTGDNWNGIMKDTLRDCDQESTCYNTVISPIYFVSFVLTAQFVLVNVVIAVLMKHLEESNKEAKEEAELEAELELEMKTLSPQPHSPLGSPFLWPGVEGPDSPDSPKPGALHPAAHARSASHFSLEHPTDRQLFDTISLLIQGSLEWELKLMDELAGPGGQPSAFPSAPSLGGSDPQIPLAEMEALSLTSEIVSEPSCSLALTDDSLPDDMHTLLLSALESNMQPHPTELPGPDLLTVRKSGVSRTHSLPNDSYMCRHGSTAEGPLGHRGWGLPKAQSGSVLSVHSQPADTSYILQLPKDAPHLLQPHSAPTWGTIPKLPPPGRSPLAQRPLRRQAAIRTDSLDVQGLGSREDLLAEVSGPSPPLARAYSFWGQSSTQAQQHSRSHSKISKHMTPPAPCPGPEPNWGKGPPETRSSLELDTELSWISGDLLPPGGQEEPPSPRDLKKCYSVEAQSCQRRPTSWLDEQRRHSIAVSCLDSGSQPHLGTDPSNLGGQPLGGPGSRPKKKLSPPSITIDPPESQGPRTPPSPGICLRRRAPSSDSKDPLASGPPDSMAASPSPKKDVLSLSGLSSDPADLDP
- protocol.text: Human Cav3.1 calcium channel patch clamp assay (SyncroPatch 384PE; single point and IC50, voltage dependent block)
- Format: cell-based
- condition.label: voltage dependent block (VDB); HEK-293 natClytin/TASK1+Cav3.1 cell line; read-out: Cav3.1 IC50
Mark true only when IC50 stays strictly below 1000 nM. Values equal to the cut-off are false.

Task: Does the reported IC50 of the following molecule sit strictly below 1000 nM? "CC(C)(C)NC(=O)CN1C[C@@H]2C[C@H]1CN2CC(=O)Nc1cccc(OC(F)F)c1"
Output: false

Task: Does the reported IC50 of the following molecule sit strictly below 1000 nM? "Cc1ccc(NC(=O)CN2C[C@@H]3C[C@H]2CN3CC(=O)NC2(C(F)(F)F)CC2)cc1Cl"
Output: false

Task: Does the reported IC50 of the following molecule sit strictly below 1000 nM? "CC(C)(C)NC(=O)CN1C[C@H]2CC[C@@H]1CN2CC(=O)Nc1ccc(F)c(Cl)c1"
Output: true

Task: Does the reported IC50 of the following molecule sit strictly below 1000 nM? CC1(C)CC(CN2C3CC2CN(CC(=O)NC24CC5CC(CC(C5)C2)C4)C3)CCO1 (centres unmarked)
Output: true

Task: Does the reported IC50 of the following molecule sit strictly below 1000 nM? "CC(C)(C)NC(=O)CN1C[C@@H]2C[C@H]1CN2CC(=O)NC12CC3CC(CC(F)(C3)C1)C2"
Output: true

Task: Does the reported IC50 of the following molecule sit strictly below 1000 nM? "CC(C)(NC(=O)CN1C2CC1CN(Cc1nc3c(F)ccc(F)c3[nH]1)C2)C(F)(F)F"
Output: true

Task: Does the reported IC50 of the following molecule sit strictly below 1000 nM? CC(C)(C)NC(=O)CN1C2CCC1CN(Cc1nc3c(Cl)cc(F)cc3[nH]1)CC2 (centres unmarked)
Output: true
